- Tested System: Mitogen-activated protein kinase kinase kinase 2 (Homo sapiens) (UniProt Q9Y2U5)
- Experiment Summary: modulators of MEK5 binding to wildtype MEKK2, primary screen, biochemical, multiplex bead flow cytometry, Alexa488-MEK5 (AID 1531)
- Stated Conditions: Alexa488-MEK5 binding to MEKK2 WT, at 10 µM, actives lie on both sides
The whole screen tested about 290,000 compounds, of which about 3,300 (1.1%) were called active. Rule as the data show it: active = binding response below about 67% or above about 130%; inconclusive = no clear call, values can overlap the other calls; inactive = in between. The entries come from a sample that favours actives as a whole.
Possible outcomes: active, inactive

>  <Chem Smiles>
COc1ccc(S(=O)(=O)N2CCOCC2)cc1C(=O)NC1CCCCC1

>  <Label>
inactive

$$$$
>  <Chem Smiles>
COc1ccc(C#Cc2c(-c3ccc(OC)cc3)oc3ccc(-c4ccc5c(c4)OCO5)cc23)cc1

>  <Label>
inactive

$$$$
>  <Chem Smiles>
COc1ccc(CNC(=O)C2CCN(S(=O)(=O)c3ccc(SC)cc3)CC2)cc1

>  <Label>
inactive

$$$$
>  <Chem Smiles>
COc1ccc(CNC(=O)C2CCN(S(C)(=O)=O)CC2)cc1

>  <Label>
active

$$$$

====

- Tested System: Mitogen-activated protein kinase kinase kinase 2 (Homo sapiens)
- Experiment Summary: modulators of MEK5 binding to wildtype MEKK2, primary screen, biochemical, multiplex bead flow cytometry, Alexa488-MEK5 (AID 1531)
- Stated Conditions: Alexa488-MEK5 binding to MEKK2 WT, at 10 µM, actives lie on both sides
In all, about 290,000 compounds went through this assay and about 3,300 (1.1%) were called active. Cut-off read from the data, not from the text of the source: active = binding response below about 67% or above about 130%; inconclusive = no clear call, values can overlap the other calls; inactive = in between. Shown is part of a subset that was picked to be rich in actives.
Possible outcomes: active, inactive

>  <Compound>
CCn1ccnc1CN(C)C(=O)c1ccc2nc(Cc3ccc(OC)cc3)oc2c1

>  <Tested System>
Mitogen-activated protein kinase kinase kinase 2 (Homo sapiens)

>  <Label>
inactive

$$$$
>  <Compound>
COc1cc(-c2nc(-c3ccncc3)no2)cc(OC)c1OC

>  <Tested System>
Mitogen-activated protein kinase kinase kinase 2 (Homo sapiens)

>  <Label>
active

$$$$
>  <Compound>
CC(=O)Nc1ccc(S(=O)(=O)Nc2nccc(/C=C/c3ccccc3F)n2)cc1

>  <Tested System>
Mitogen-activated protein kinase kinase kinase 2 (Homo sapiens)

>  <Label>
active

$$$$
>  <Compound>
COc1ccc2c(c1)CCNC2Cc1ccc(OC)c(O)c1 (centres undefined)

>  <Tested System>
Mitogen-activated protein kinase kinase kinase 2 (Homo sapiens)

>  <Label>
inactive

$$$$

====

- Tested System: Mitogen-activated protein kinase kinase kinase 2 (Homo sapiens) (UniProt Q9Y2U5)
- Experiment Summary: modulators of MEK5 binding to wildtype MEKK2, primary screen, biochemical, multiplex bead flow cytometry, Alexa488-MEK5 (AID 1531)
- Stated Conditions: Alexa488-MEK5 binding to MEKK2 WT, at 10 µM, actives lie on both sides
Among all 290,000 compounds or so, about 3,300 (1.1%) were called active. No stated cut-off is given here; in the data, active means binding response below about 67% or above about 130%; inconclusive means no clear call, values can overlap the other calls; inactive means in between. The sample as a whole holds a higher share of actives than the screen did.
Possible outcomes: class 1 = active, class 0 = inactive

>  <Compound>
COCCCNC(=O)[C@H]1N2C(=O)c3ccccc3C2SC1(C)C (stereo partly drawn)

>  <Label>
class 0

$$$$
>  <Compound>
Cc1c(-c2ccccc2)cn2c1-c1ccc(C)n1CC2

>  <Label>
class 1

$$$$
>  <Compound>
Cn1c(SCC(=O)N2CCCC2)nnc1-c1ccc2c(c1)OCO2

>  <Label>
class 0

$$$$
